The origin of these recorded values is patent US20230181756A1.

Tgt: T1, human CCR7 (human, UniProt P32248 25-378)
T1 construct: The assay field tells which; also called hCCR7; NIH3T3.hCCR7
T1 sequence: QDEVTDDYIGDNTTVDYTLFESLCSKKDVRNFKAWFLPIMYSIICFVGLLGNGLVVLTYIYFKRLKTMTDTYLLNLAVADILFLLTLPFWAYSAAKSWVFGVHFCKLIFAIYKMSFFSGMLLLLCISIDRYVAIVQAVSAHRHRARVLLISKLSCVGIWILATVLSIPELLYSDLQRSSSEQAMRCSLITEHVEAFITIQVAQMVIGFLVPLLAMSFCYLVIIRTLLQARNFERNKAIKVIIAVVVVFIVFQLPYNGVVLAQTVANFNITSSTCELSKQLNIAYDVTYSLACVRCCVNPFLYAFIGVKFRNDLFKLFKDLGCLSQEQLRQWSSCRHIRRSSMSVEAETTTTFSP
Procedure summary: ELISA on CCR7-expressing VLPs, pH 5.8 buffer
Measurement name: pKd
Convention used: pKd is expressed as -log10 of the molar concentration.

Previously resolved entries follow.
INSERT INTO results (binder, measurement_name, reported_measurement) VALUES
  ('674J13 humanized CysMab (Fc Wild Type) (antibody, V domains shown, Human IgG1 kappa with CysMab cysteines; also called Humanized CysMab antibody 674J13) VH: DVQLQESGPGLVKPSQTLSLTCTVSGYSITSGYSWHWIRQHPGKGLEWMAHIHSSGSTNYNPSLKSRITISRDTSKNQFSLKLSSVTAADTAVYYCARGGVQAFAYWGQGTLVTVSS VL: EIVLTQSPATLSASPGERVTMSCSASSSVIYMHWYQQKPGQAPRRWIYDTSKLASGVPARFSGSGSGTDYTLTISSMEPEDAAVYYCQQWSSNPLTFGQGTKLEIK', 'pKd', 9.78),
  ('121G12 humanized CysMab (Fc Wild Type) (antibody, V domains shown, Human IgG1 kappa with CysMab cysteines (E152C, S375C); also called Humanized CysMab antibody 121G12; 121G12.CysMab.DAR4 unconjugated (assigned)) VH: EVQLVESGGGLVKPGGSLRLSCAASGFTFSTYAMSWVRQAPGKGLEWVATISDAGSYSYYPDNVKGRFTISRDNAKNSLYLQMNSLRAEDTAVYYCARRGSRYEEYYVMDYWGQGTTVTVSS VL: EIVLTQSPATLSVSPGERVTLSCRASQSISNNLHWYQQKPGQAPRLLIKYASQSISGIPARFSGSGSGTDFTLTISSVEPEDFGVYFCQQSSSWLTFGQGTKLEIK', 'pKd', 9.28),
  ('684E12 humanized CysMab (Fc Wild Type) (antibody, V domains shown, Human IgG1 kappa with CysMab cysteines; also called Humanized CysMab antibody 684E12) VH: EVQLVESGGGLVKPGGSLRLSCAASGFTFSNFAMSWVRQAPGKGLEWVSTISTGGTYTYYPDSVKGRFTISRDNAKNSLYLQMNSLRAEDTAVYYCARRGYSGVDKWGQGTTVTVSS VL: DVVMTQSPLSLPVTLGQPASISCKSGQSLLDSTGKTYLNWFLQRPGQSPRRLIYLVSKLDSGVPDRFSGSGSGTDFTLKISRVEAEDVGVYYCWQGTHFPQTFGGGTKLEIK', 'pKd', 9.30);

Reported pKd ( 506E15 humanized CysMab (Fc Wild Type) (antibody, V domains shown, Human IgG1 kappa with CysMab cysteines; also called Humanized CysMab antibody 506E15) VH: EVQLVESGGGLVKPGGSLRLSCAASGFTFSSYAMSWIRQAPGKGLEWVATISSGGSFTYYPDSVKGRFTISRDNAKNSLYLQMNSLRAEDTAVYYCARRASTVVGTDFDVWGQGTTVTVSS VL: DIQMTQSPSSLSASVGDRVTLTCRASQDIGSSLNWLQQKPGKAIKRLIYATSSLDSGVPSRFSGSRSGTDYTLTISSLQPEDFVVYYCLQYASSPPTFGGGTKLEIK ) = 9.31
